Reference source for all entries: patent US20220265845A1

System Name: Human recombinant ALDH3A1 (Homo sapiens)
Sequence (P30838 1-453): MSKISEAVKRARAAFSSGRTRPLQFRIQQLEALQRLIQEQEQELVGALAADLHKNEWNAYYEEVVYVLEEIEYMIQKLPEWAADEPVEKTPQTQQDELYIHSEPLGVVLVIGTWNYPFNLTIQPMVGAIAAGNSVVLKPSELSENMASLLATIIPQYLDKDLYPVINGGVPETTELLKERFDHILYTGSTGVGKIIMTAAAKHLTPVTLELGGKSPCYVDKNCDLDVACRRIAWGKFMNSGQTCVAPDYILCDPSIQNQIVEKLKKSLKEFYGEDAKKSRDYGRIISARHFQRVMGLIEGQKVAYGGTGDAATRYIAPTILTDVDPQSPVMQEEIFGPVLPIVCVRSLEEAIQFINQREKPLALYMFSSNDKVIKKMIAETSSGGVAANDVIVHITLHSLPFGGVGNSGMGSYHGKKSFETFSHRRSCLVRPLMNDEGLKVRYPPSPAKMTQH
Test Details: Enzymatic assay with human recombinant ALDH3A1 (NADP+, 4-NBA), IC50
Measurement Setup: substrate 4-Nitrobenzaldehyde, 37° C.
Exercise: state measured IC50 for each of the compounds provided.
One number for each entry, in µM.

# example entries with known answers
| Compound | IC50, µM |
| --- | --- |
| CSC(=O)C#CC(C)(C)N(C)C [DIMATE, reference compound] | 303 |
| CSC(=O)C#CC(C)(C)N(C)CCOCc1ccc(C)c(C)c1 | 143 |

Could you now consider this next compound?
The compound CSC(=O)C#CC(C)(C)N(C)CCOCc1ccccc1 , tested on Human recombinant ALDH3A1 (Homo sapiens), showed IC50 of 242
